Test system: A-549
Assay: MTT assay
Assay type: cell-based, human
Conditions: Homo sapiens, A549, 72 h
Readout label: IC50 (µM)

[[record]]
compound = "COc1ccccc1SSc1ccccc1OC [Compound 2, bis(2-methoxyphenyl) disulfide]"
data_value = 29.6

[[record]]
compound = "Oc1ccc(SSc2ccc(O)cc2)cc1 [Compound 4, 4,4′-dihydroxydiphenyl disulfide]"
data_value = 29.7

[[record]]
compound = "c1ccc(SSSc2ccccc2)cc1 [Compound 1, diphenyl trisulfide]"
data_value = 43.6


A. c1ccc(SSc2ccccc2)cc1 [Compound 5, diphenyl disulfide]
B. COc1cccc2c1C(=O)c1c(O)c3c(c(O)c1C2=O)C[C@@](O)(C(=O)CO)C[C@@H]3O[C@H]1C[C@H](N)[C@H](O)[C@H](C)O1 [doxorubicine, doxorubicin, reference compound]
C. COc1ccc(SSc2ccc(OC)c(OC)c2)cc1OC [Compound 3, bis(3,4-dimethoxyphenyl) disulfide]
Exercise: Task for the reader: rank each entry by its IC50, from the minimum upward. Order the labels as requested and list them.
Key: B, C, A
